test: Transporter-mediated cellular uptake into primary astrocytes; assay type: in vitro ADME; conditions: C57BL/6JOlaHsd, mouse, read-out: Km of cellular uptake, Eadie-Hofstee, second transport mechanism
Parameter: Km at 30 min (µM)
Respond with the bare value in µM.

Param item = O=C1OCc2cc(-c3ccc(-c4ccc(CO)cc4)s3)ccc21 ; retrieve measured Km at 30 min.
680

====

assay: Transporter-mediated cellular uptake into primary astrocytes; format: in vitro ADME; conditions: C57BL/6JOlaHsd, mouse, read-out: Km of cellular uptake, Eadie-Hofstee, first transport mechanism
Parameter: Km at 30 min (µM)
Report only the number, with the unit µM understood.

Item under review: O=C1OCc2cc(-c3ccc(-c4ccc(CO)cc4)s3)ccc21 . Reported Km at 30 min?
8.3
